System: Homo sapiens
Test: Toxicity in patient with mucormycosis assessed as WBC count at 5 to 20 mg/kg/day, po for 14 days (reference value: 8.1/uL)
Type: organism-based
Set-up: route oral
Conditions: in vivo, 336 h
readout-kind: Activity

* O=C(O)c1ccc(-n2nc(-c3ccccc3O)nc2-c2ccccc2O)cc1 [DEFERASIROX] | 10.8 10^3 cells/µL
